- Tested On: T1, amylin receptor (hAMY3R) (human, UniProt P30988 25-474; O60896 24-148)
- T1 sequence (looked up) 1: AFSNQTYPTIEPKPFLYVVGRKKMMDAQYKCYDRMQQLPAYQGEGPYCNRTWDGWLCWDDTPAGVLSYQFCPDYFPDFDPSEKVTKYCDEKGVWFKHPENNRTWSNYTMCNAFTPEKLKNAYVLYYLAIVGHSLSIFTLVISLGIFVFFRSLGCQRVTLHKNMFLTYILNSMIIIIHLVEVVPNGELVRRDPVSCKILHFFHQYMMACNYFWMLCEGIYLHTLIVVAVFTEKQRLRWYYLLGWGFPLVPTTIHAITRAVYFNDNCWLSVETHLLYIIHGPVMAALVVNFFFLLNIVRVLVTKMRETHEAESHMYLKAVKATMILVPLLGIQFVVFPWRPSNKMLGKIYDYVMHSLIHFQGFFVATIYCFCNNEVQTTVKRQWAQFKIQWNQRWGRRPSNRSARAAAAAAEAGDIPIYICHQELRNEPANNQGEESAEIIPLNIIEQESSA
- T1 sequence (looked up) 2: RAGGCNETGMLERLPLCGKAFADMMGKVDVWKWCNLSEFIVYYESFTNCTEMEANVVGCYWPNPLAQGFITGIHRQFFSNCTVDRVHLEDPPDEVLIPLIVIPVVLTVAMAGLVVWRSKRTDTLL
- Protocol: cell-based or functional assay
Numbered stars: 1 amine (or outer) side, 2 acyl side, 3 side chain; on linkers, the order of the positions; unused ones are H or OH. Bridge positions count the residues as written; N and C are the ends. Square brackets hold non-standard residues; d marks the D form. Primed or numbered codes have the meaning given here. * marks the point of attachment. C20 diacid = O=C(O)CCCCCCCCCCCCCCCCCCC(=O)*; C18 diacid = O=C(O)CCCCCCCCCCCCCCCCC(=O)*; C16 diacid = O=C(O)CCCCCCCCCCCCCCC(=O)*; γGlu = O=C(O)[C@H](CCC(=O)[*:2])N[*:1]; Hyp = O=C(O)[C@@H]1C[C@@H](O)CN1; Inp′ = not defined here; AEEA = NCCOCCOCC(=O)O
Assign EC50, CRE-luciferase reporter in amylin receptor/CRE-luc CHO cells, 24 h to each entry below.
One number for each entry, in nM.

Example cases with answers are listed next.
Binder	Value Reported
{C16 diacid-γGlu}-ASQLSTAVLGRLSDELHRLQDYPRTDVGSGSP-NH2 (ends and bridges not checked) [M9]	0.002
{C18 diacid}-EASQLSTAVLGRLSDELHRLQDYPRTDVGSGSP-NH2 [M11]	0.016
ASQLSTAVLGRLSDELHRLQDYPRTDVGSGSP (not fully specified; N terminus: C20 diacid + yGlu+8 AEEAs) [M21]	0.044
{C18 diacid-Inp′-AEEA-AEEA}-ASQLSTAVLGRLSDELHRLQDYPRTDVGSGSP-NH2 [M30]	0.001
{C20 diacid-AEEA-AEEA}-KCNTATCATQRLADFLRHSSNNLKPILPPTNVGSNT[Hyp]-NH2 (disulfide 2-7 (inferred); ends not checked) [N1]	0.016

Respectfully, I request EC50, CRE-luciferase reporter in amylin receptor/CRE-luc CHO cells, 24 h for each entry included below.
1. {C18 diacid-Inp′}-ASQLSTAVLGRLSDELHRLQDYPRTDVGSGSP-NH2 [M17]
2. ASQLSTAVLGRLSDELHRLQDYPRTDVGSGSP (not fully specified; N terminus: C20 diacid + Trx) [M14]
3. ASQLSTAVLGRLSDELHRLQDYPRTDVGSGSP (not fully specified; N terminus: C20 diacid + Trx+2 AEEAs) [M27]
4. {C18 diacid-γGlu-AEEA-AEEA}-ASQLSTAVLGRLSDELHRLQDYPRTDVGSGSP-NH2 [M22]
5. {C18 diacid}-DASQLSTAVLGRLSDELHRLQDYPRTDVGSGSP-NH2 [M13]
6. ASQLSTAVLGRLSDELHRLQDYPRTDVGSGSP (not fully specified; N terminus: C20 diacid + Inp+2 AEEAs) [M29]
7. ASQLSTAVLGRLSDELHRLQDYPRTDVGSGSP (not fully specified; N terminus: C20 diacid + βAsp+2 AEEAs) [M25]
8. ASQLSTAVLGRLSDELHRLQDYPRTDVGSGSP (N terminus: C18 diacid + Trx) [M15]

0.063
0.456
0.004
0.015
0.016
0.006
0.017
0.119
